test system: MCF7; test: Antiproliferative activity against human MCF7 cells after 48 hrs by MTT assay; type: functional, cell-based; details: MCF7, 48 h
Listed compounds paired with reported IC50
valueType: IC50

1. Cc1ccc(C(=O)/C=C/c2cc(Br)cc(Br)c2Oc2c([N+](=O)[O-])cc(C(F)(F)F)cc2[N+](=O)[O-])cc1; 1.44 mg/L
2. O=C(/C=C/c1cc(Br)ccc1Oc1c([N+](=O)[O-])cc(C(F)(F)F)cc1[N+](=O)[O-])c1ccc(F)cc1; 6.01 mg/L
3. COc1ccc(C(=O)/C=C/c2cc(Cl)ccc2Oc2c([N+](=O)[O-])cc(C(F)(F)F)cc2[N+](=O)[O-])cc1; 1.83 mg/L
4. O=C(/C=C/c1cc(Cl)ccc1Oc1c([N+](=O)[O-])cc(C(F)(F)F)cc1[N+](=O)[O-])c1ccc(Cl)cc1; 3.21 mg/L
